Value source: PubChem BioAssay AID504332

tested target: Histone-lysine N-methyltransferase EHMT2 (Homo sapiens) (UniProt Q96KQ7)
Sequence (Q96KQ7 913-1193 limits assumed): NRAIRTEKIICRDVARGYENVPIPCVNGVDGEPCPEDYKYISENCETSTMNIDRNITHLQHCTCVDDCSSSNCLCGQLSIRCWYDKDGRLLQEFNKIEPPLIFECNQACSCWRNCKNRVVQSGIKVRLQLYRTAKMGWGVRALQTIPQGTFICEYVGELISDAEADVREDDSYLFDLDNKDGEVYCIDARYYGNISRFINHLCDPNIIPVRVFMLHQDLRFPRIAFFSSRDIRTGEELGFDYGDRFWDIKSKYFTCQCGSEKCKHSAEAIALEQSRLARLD
test name: qHTS Assay for Inhibitors of Histone Lysine Methyltransferase G9a; note: nearly all actives have a fitted effect of over 75% in size
protocol conditions: G9a H3K9 monomethylation, AlphaScreen, 2 h; series mostly up to 59 µM
Among all 350,000 compounds or so, about 31,000 (8.9%) were called active. About 15% were inconclusive and are not listed. Calls come from the whole dose curve; as a rule, active = well fitted inhibition curve with a large enough effect; inconclusive = small, poorly fitted or top-dose-only effect; inactive = no such curve, though single readings can be large or run the other way. Shown is part of a subset that was picked to be rich in actives.
Outcomes: active, inactive

# molecule, cat
measured = [
    ("Oc1cc(O)c2c(c1)OC(c1ccc(O)c(O)c1)C(O)C2 (stereo unspecified)", "active"),
    ("CCOc1ccc(CNCc2c(C(=O)O)c(C)n(Cc3cccc(OC)c3)c2C)cc1OC", "inactive"),
    ("CCOc1ccc(Nc2nc(Cl)nc(N3CCN(c4ccc(OC)cc4)CC3)n2)cc1", "active"),
    ("CCc1ccc(-c2nc(SCC(=O)NC3CCCC3)n[nH]2)cc1", "inactive"),
    ("COc1cc(-c2cc3n(C)c(C)c(CCC(=O)Nc4ccc(F)cc4)c(=O)n3n2)cc(OC)c1OC", "inactive"),
    ("Cc1ccc(Nc2nc(N3CCOCC3)nc(N3CCOCC3)n2)cc1Cl", "inactive"),
]

---

tested target: Histone-lysine N-methyltransferase EHMT2 (Homo sapiens)
test name: qHTS Assay for Inhibitors of Histone Lysine Methyltransferase G9a; note: nearly all actives have a fitted effect of over 75% in size; note: potency is the fitted concentration of half-maximal effect
protocol conditions: G9a H3K9 monomethylation, AlphaScreen, 2 h; series mostly up to 59 µM
Hit rate of the full screen: of about 350,000 compounds, about 31,000 (8.9%) were called active. Not shown: some 15% with an inconclusive outcome. The sample holds actives, similar compounds and a random draw of the others, so the mix is not that of the screen.
endpoint label: Potency

# compound, tested target, observed
data = [
    ("COc1ccc(N(C)C(=O)CCS(=O)(=O)c2cccc3nsnc23)cc1", "Histone-lysine N-methyltransferase EHMT2 (Homo sapiens)", "inactive"),
    ("O=[N+]([O-])c1ccc(O)c(/C=N/Nc2ccccc2[N+](=O)[O-])c1", "Histone-lysine N-methyltransferase EHMT2 (Homo sapiens)", "20 µM (active)"),
    ("CC(C)n1c(-c2cccs2)nc2ccccc21", "Histone-lysine N-methyltransferase EHMT2 (Homo sapiens)", "inactive"),
    ("COc1cccc(Cn2c(CNS(=O)(=O)c3ccc(Cl)s3)nc3cccnc32)c1", "Histone-lysine N-methyltransferase EHMT2 (Homo sapiens)", "inactive"),
    ("CCC(C)n1c(-c2cc(OC)c(OC)c(OC)c2)nc2nc3ccccc3nc21 (stereo not given)", "Histone-lysine N-methyltransferase EHMT2 (Homo sapiens)", "inactive"),
    ("Nc1nnnn1/N=C/c1cc([N+](=O)[O-])ccc1O", "Histone-lysine N-methyltransferase EHMT2 (Homo sapiens)", "inactive"),
    ("CC(C)(C)C1CCc2c(sc(NC(=O)c3ccccc3F)c2C(=O)N2CCCCC2)C1 (stereo not given)", "Histone-lysine N-methyltransferase EHMT2 (Homo sapiens)", "inactive"),
    ("Cc1cccc(C)c1NC(=O)C1(C)c2cccc[n+]2CC(=O)N1Cc1cccs1 (stereo not given)", "Histone-lysine N-methyltransferase EHMT2 (Homo sapiens)", "14.1 µM (active)"),
    ("O=C(CCS(=O)(=O)c1ccccc1)NC1CCCC1", "Histone-lysine N-methyltransferase EHMT2 (Homo sapiens)", "inactive"),
    ("NC(=O)CSc1nc2c(oc3ccccc32)c(=O)n1Cc1ccccc1", "Histone-lysine N-methyltransferase EHMT2 (Homo sapiens)", "inactive"),
    ("CCOc1ccc(S(=O)(=O)N(CC(=O)NCCSCc2ccc(C)cc2)c2ccccc2)cc1", "Histone-lysine N-methyltransferase EHMT2 (Homo sapiens)", "inactive"),
    ("Cc1ccc(NC(=O)CSc2nc3c([nH]c4ccccc43)c(=O)n2-c2ccccc2)c(C)c1", "Histone-lysine N-methyltransferase EHMT2 (Homo sapiens)", "inactive"),
    ("Cc1[nH]n(-c2cccc(Cl)c2)c(=O)c1-c1ccc(Cl)cc1", "Histone-lysine N-methyltransferase EHMT2 (Homo sapiens)", "inactive"),
    ("Cn1cccc1C(=O)N1CCc2ccccc2C1", "Histone-lysine N-methyltransferase EHMT2 (Homo sapiens)", "2 µM (active)"),
    ("COc1ccc(NC(=O)CN(C)C(=O)/C=C/c2cn(Cc3ccccc3)nc2-c2cccnc2)cc1", "Histone-lysine N-methyltransferase EHMT2 (Homo sapiens)", "7.94 µM (active)"),
    ("CCS(=O)(=O)N1CCc2cc(C(=O)NCc3ccc(OC)cc3)ccc21", "Histone-lysine N-methyltransferase EHMT2 (Homo sapiens)", "inactive"),
    ("COc1cccc(NC(=O)CN(C)C(=O)/C=C/c2cn(-c3ccccc3)nc2-c2cccs2)c1", "Histone-lysine N-methyltransferase EHMT2 (Homo sapiens)", "inactive"),
    ("CC(C)c1ccc(C2C(C(=O)c3ccco3)=C(O)C(=O)N2CC2CCCO2)cc1 (stereo not given)", "Histone-lysine N-methyltransferase EHMT2 (Homo sapiens)", "44.7 µM (active)"),
    ("CC(C)c1ccc(N(C(=O)c2ccco2)C(C(=O)NC2CCCC2)c2cccnc2)cc1 (stereo not given)", "Histone-lysine N-methyltransferase EHMT2 (Homo sapiens)", "inactive"),
    ("CCOc1ccc(CNC(=O)c2cc(=O)[nH]c3ccc(S(=O)(=O)N4CCCCC4)cc23)cc1", "Histone-lysine N-methyltransferase EHMT2 (Homo sapiens)", "inactive"),
    ("Cc1[nH]n(-c2ccccc2)c(=O)c1N=Nc1ccccc1C(=O)N1CCCCC1", "Histone-lysine N-methyltransferase EHMT2 (Homo sapiens)", "inactive"),
    ("Cc1ccc(-c2cc(C(=O)N3CCc4ccccc4C3)no2)cc1", "Histone-lysine N-methyltransferase EHMT2 (Homo sapiens)", "inactive"),
    ("Cc1cc(-c2cccs2)nc(-n2cccc2)n1", "Histone-lysine N-methyltransferase EHMT2 (Homo sapiens)", "inactive"),
    ("O=C(CCCN1C(=O)/C(=C/c2ccco2)SC1=S)Nc1ccccc1", "Histone-lysine N-methyltransferase EHMT2 (Homo sapiens)", "inactive"),
    ("COc1ccc(C)cc1NC(=O)CCS(=O)(=O)c1cccc2nonc12", "Histone-lysine N-methyltransferase EHMT2 (Homo sapiens)", "inactive"),
    ("Cc1cccc2sc(N(CCCN(C)C)C(=O)CCS(=O)(=O)c3ccccc3)nc12", "Histone-lysine N-methyltransferase EHMT2 (Homo sapiens)", "22.4 µM (active)"),
    ("COc1cccc(OCCn2c(-c3ccc(Br)cc3)nc3ccccc3c2=O)c1", "Histone-lysine N-methyltransferase EHMT2 (Homo sapiens)", "inactive"),
    ("c1csc(-c2cn3c(n2)SCC3)c1", "Histone-lysine N-methyltransferase EHMT2 (Homo sapiens)", "17.8 µM (active)"),
    ("CCCCC(=O)OC1=CN(Cc2ccccc2)S(=O)(=O)c2ccccc21", "Histone-lysine N-methyltransferase EHMT2 (Homo sapiens)", "inactive"),
    ("CCOC(=O)c1c(C)[nH]c(C)c1S(=O)(=O)N1CCC(C(=O)Nc2ccc(C)c(Cl)c2)CC1", "Histone-lysine N-methyltransferase EHMT2 (Homo sapiens)", "inactive"),
]

---

tested target: Histone-lysine N-methyltransferase EHMT2 (Homo sapiens) (UniProt Q96KQ7)
test name: qHTS Assay for Inhibitors of Histone Lysine Methyltransferase G9a; note: nearly all actives have a fitted effect of over 75% in size
protocol conditions: G9a H3K9 monomethylation, AlphaScreen, 2 h; series mostly up to 59 µM
The campaign covered roughly 350,000 compounds. About 31,000 (8.9%) were called active. Not shown: some 15% with an inconclusive outcome. Calls come from the whole dose curve; as a rule, active = well fitted inhibition curve with a large enough effect; inconclusive = small, poorly fitted or top-dose-only effect; inactive = no such curve, though single readings can be large or run the other way. The full list was thinned out, with actives kept by preference.
Outcomes: TRUE for active, FALSE for inactive

# compound, tested target, cat
measured = [
    ("COc1ccccc1NC(=O)CSc1oc(-c2ccco2)nc1S(=O)(=O)c1ccc(Br)cc1", "Histone-lysine N-methyltransferase EHMT2 (Homo sapiens) (UniProt Q96KQ7)", "FALSE"),
    ("Cc1cccc[n+]1CC(=O)c1ccccc1", "Histone-lysine N-methyltransferase EHMT2 (Homo sapiens) (UniProt Q96KQ7)", "FALSE"),
    ("CC(OC(=O)C1CC(=O)N(Cc2ccccc2)C1)C(=O)Nc1ccccc1[N+](=O)[O-] (centres undefined)", "Histone-lysine N-methyltransferase EHMT2 (Homo sapiens) (UniProt Q96KQ7)", "TRUE"),
    ("CCn1cc(C(=O)N(C)Cc2ccccc2)c(=O)c2cc(S(=O)(=O)N3CCCCCC3)ccc21", "Histone-lysine N-methyltransferase EHMT2 (Homo sapiens) (UniProt Q96KQ7)", "FALSE"),
    ("Cc1ccc(S(=O)(=O)NCCC(=O)NC2CCN(Cc3ccccc3)CC2)cc1", "Histone-lysine N-methyltransferase EHMT2 (Homo sapiens) (UniProt Q96KQ7)", "FALSE"),
    ("COc1ccc(Br)cc1C1CC(=O)Nc2c1c(C)nn2-c1nc(C)cc(C)n1 (centres undefined)", "Histone-lysine N-methyltransferase EHMT2 (Homo sapiens) (UniProt Q96KQ7)", "FALSE"),
    ("CC(C)C(=O)Nc1ccc2oc(=O)ccc2c1", "Histone-lysine N-methyltransferase EHMT2 (Homo sapiens) (UniProt Q96KQ7)", "FALSE"),
    ("COc1ccc(OC)c(-n2nnc3c(sc4nc(C)c(Br)c(C)c43)c2=O)c1", "Histone-lysine N-methyltransferase EHMT2 (Homo sapiens) (UniProt Q96KQ7)", "FALSE"),
    ("Cc1nc(SCc2ccc(F)cc2)c([N+](=O)[O-])[nH]1", "Histone-lysine N-methyltransferase EHMT2 (Homo sapiens) (UniProt Q96KQ7)", "TRUE"),
]
